System: K-562 leukemia
Assay Info: NCI tumour cell line growth inhibition, 48 h
Quick reference: GI50 of the listed items.

>  <Structure Notation>
COc1cccc(NC(=O)c2ccc(C(F)(F)F)nc2Nc2ccc(Cl)cc2C)c1

>  <GI50>
13.9 µM

$$$$

Entry CCOc1ccc2c(-c3ccnc(Nc4cccc(C(F)(F)F)c4)n3)cnn2n1 : reported GI50 = ? 15.9 µM

Need GI50, item COc1ccc(/C=C2/CCOC2=O)cc1 > 100 µM

----------
Below, each entry is listed alongside its reported TGI.
Test system: RPMI-8226 leukemia
Assay Info: NCI tumour cell line growth inhibition, 48 h

Sample answers from the record:
>  <Compound>
CCCCCCCCCCCCCCCCCCNc1ccn(C2OC(COP(=O)(O)OCCCCCCCCCCCCCCCC)C(O)C2O)c(=O)n1 (stereo unspecified)

>  <Quantity Name>
TGI

>  <Value>
> 100 µM

$$$$
>  <Compound>
COc1cc2c(cc1OC)[C@]1(O)C(=O)c3ccc4c(c3O[C@@H]1CO2)C[C@H](C(C)(C)O)O4

>  <Quantity Name>
TGI

>  <Value>
> 100 µM

$$$$
>  <Compound>
CC(C)C(OC(=O)c1cc(NC(=S)c2ccccc2)ccc1Cl)C(C)C

>  <Quantity Name>
TGI

>  <Value>
> 73.5 µM

$$$$

Look up TGI for this compound: Cc1ccccc1N=Nc1ccc(N=Nc2c(O)ccc3cc(S(=O)(=O)O)cc(S(=O)(=O)O)c23)c(C)c1 > 100 µM

For the compound O=c1[nH]nc2c3n[nH]c(=O)n3c3ccccc3n12 , what TGI is on record? > 100 µM

----------
System: MALME-3M melanoma
Assay Info: NCI tumour cell line growth inhibition, 48 h
Each entry below carries its recorded TGI.

>  <Compound>
COc1ccc(S(=O)(=O)N2CCCCC2)cc1NC(=O)c1[nH]c(C)c2c1CCCCC2=O

>  <TGI>
93.8 µM

$$$$
>  <Compound>
Cc1nc(SCC(=O)Nc2ccccc2)c2sc(=S)n(-c3ccccc3)c2n1

>  <TGI>
> 10 µM

$$$$
>  <Compound>
CC(=O)[CH-]C(=O)c1ccccc1.CC(=O)[CH-]C(=O)c1ccccc1.CC(C)CCCC(C)[C@H]1CCC2[C@@H]3CCC4C[C@@H]([O-])CC[C@]4(C)C3CC[C@@]21C.CC(C)CCCC(C)[C@H]1CCC2[C@@H]3CCC4C[C@@H]([O-])CC[C@]4(C)C3CC[C@@]21C.Cl.[Ti+4] (stereo partly specified)

>  <TGI>
> 25 µM

$$$$
>  <Compound>
O=S(=O)(O)c1cc(O)c2c(O)c(N=Nc3ccc(/C=C/c4ccc(N=Nc5c(S(=O)(=O)O)cc6cc(S(=O)(=O)O)cc(O)c6c5O)cc4S(=O)(=O)O)c(S(=O)(=O)O)c3)c(S(=O)(=O)O)cc2c1

>  <TGI>
> 100 µM

$$$$
>  <Compound>
COc1cc(CSc2ccc(O)cc2)cc(O)c1O

>  <TGI>
> 100 µM

$$$$

# input for lookup
What reported TGI corresponds to C/C(CC(=O)Nc1ccc(C)cc1)=N\NC(N)=S on MALME-3M melanoma? > 100 µM

----------
System: OVCAR-5 ovarian
Assay Info: NCI tumour cell line growth inhibition, 48 h
Quantity Name: TGI

>  <Molecule>
O=C(CN1CCOCC1)NC1=Nc2ncccc2C(=O)NN1

>  <Value>
> 10 µM

$$$$

Here's the next entry for you.
Observed TGI on OVCAR-5 ovarian for CC(=O)C1C(=O)C(=O)N(c2ccc(Cl)cc2C)C1=O (stereo not drawn) , please. > 100 µM
